Tested on: alcohol dehydrogenase
Test: Relative equilibrium constants of trapping agents from NADH production by alcohol dehydrogenase after 10 minutes
Format: biochemical
Conditions: 5 mM trapping agent, 200 mM Glycine pH 9.5, 10 mM NAD, 5 mM ethanol, 125 IU ADH
measured_endpoint: RELATIVE EQUILIBRIUM CONSTANT

Field: RELATIVE EQUILIBRIUM CONSTANT (alcohol dehydrogenase). Entry: NC(CO)(CO)CO [Tris, Tris hydroxyl methylamine methane]
.2

Field: RELATIVE EQUILIBRIUM CONSTANT (alcohol dehydrogenase). Entry: C=CCON [Allylhydroxylamine]
25.3

Field: RELATIVE EQUILIBRIUM CONSTANT (alcohol dehydrogenase). Entry: "CON"
11.7

Field: RELATIVE EQUILIBRIUM CONSTANT (alcohol dehydrogenase). Entry: "NOCC(=O)O"
38.6

Field: RELATIVE EQUILIBRIUM CONSTANT (alcohol dehydrogenase). Entry: CCON [Ethylhydroxylamine]
11.8

Field: RELATIVE EQUILIBRIUM CONSTANT (alcohol dehydrogenase). Entry: NOCc1ccccc1 [O-Benzylhydroxylamine]
40.9

Numbers sourced from patent US5112741A.
